test system: OVCAR-8 ovarian; assay: NCI-60 one-dose screen, 48 h (100 = growth as untreated, 0 = no growth, -100 = all killed); details: 10 µM
About 83,000 compounds went through this panel and 20% of them were active in at least one assay; those are over-represented in the sample as a whole.
Provide the recorded growth for the entries that follow.
Answer format: numeric, % implied, no suffix.

Please respond with reported growth (system OVCAR-8 ovarian) for O=C(O)c1cccc([N+](=O)[O-])c1O .
113

Please respond with reported growth (system OVCAR-8 ovarian) for O=C1C=C(O)C(=O)C=C1O .
103

Please respond with reported growth (system OVCAR-8 ovarian) for CC(=O)c1cc2c(cc1F)C(C)(C)CCC2(C)C .
104

Please respond with reported growth (system OVCAR-8 ovarian) for CCOC(=O)C/C(C)=N\O .
109

Please respond with reported growth (system OVCAR-8 ovarian) for C/C(O)=C(\C=N\C(N)=S)C(=O)Nc1ccccc1 .
99.7

Please respond with reported growth (system OVCAR-8 ovarian) for Cc1cc(Cc2cc(C)c(N)cc2N)c(N)cc1N .
89.7

Please respond with reported growth (system OVCAR-8 ovarian) for c1ncc2[nH]cnc2n1 .
95.6

Please respond with reported growth (system OVCAR-8 ovarian) for O=C(NCc1ccco1)Nc1c(Cl)cc(Cl)cc1Cl .
101

Please respond with reported growth (system OVCAR-8 ovarian) for S=C1CCCCCN1 .
104

Please respond with reported growth (system OVCAR-8 ovarian) for Cc1cc2nc(CO)[nH]c2cc1C .
101

Please respond with reported growth (system OVCAR-8 ovarian) for CCCC(C)OCC(=O)O (centres undefined) .
97.2

Please respond with reported growth (system OVCAR-8 ovarian) for CC(C)COC(=O)COC(=O)OCCOCCOC(=O)OCC(=O)OCC(C)C .
99.7

Please respond with reported growth (system OVCAR-8 ovarian) for OC1OC(COC(c2ccccc2)(c2ccccc2)c2ccccc2)C(O)C(O)C1O (centres undefined) .
93.7

Please respond with reported growth (system OVCAR-8 ovarian) for CC(=O)CC(=O)N(C)C .
101
